- ASSAY SYSTEM: mTOR (Homo sapiens)
- Construct: FLAG; made in house
- Sequence (P42345 1362-2549): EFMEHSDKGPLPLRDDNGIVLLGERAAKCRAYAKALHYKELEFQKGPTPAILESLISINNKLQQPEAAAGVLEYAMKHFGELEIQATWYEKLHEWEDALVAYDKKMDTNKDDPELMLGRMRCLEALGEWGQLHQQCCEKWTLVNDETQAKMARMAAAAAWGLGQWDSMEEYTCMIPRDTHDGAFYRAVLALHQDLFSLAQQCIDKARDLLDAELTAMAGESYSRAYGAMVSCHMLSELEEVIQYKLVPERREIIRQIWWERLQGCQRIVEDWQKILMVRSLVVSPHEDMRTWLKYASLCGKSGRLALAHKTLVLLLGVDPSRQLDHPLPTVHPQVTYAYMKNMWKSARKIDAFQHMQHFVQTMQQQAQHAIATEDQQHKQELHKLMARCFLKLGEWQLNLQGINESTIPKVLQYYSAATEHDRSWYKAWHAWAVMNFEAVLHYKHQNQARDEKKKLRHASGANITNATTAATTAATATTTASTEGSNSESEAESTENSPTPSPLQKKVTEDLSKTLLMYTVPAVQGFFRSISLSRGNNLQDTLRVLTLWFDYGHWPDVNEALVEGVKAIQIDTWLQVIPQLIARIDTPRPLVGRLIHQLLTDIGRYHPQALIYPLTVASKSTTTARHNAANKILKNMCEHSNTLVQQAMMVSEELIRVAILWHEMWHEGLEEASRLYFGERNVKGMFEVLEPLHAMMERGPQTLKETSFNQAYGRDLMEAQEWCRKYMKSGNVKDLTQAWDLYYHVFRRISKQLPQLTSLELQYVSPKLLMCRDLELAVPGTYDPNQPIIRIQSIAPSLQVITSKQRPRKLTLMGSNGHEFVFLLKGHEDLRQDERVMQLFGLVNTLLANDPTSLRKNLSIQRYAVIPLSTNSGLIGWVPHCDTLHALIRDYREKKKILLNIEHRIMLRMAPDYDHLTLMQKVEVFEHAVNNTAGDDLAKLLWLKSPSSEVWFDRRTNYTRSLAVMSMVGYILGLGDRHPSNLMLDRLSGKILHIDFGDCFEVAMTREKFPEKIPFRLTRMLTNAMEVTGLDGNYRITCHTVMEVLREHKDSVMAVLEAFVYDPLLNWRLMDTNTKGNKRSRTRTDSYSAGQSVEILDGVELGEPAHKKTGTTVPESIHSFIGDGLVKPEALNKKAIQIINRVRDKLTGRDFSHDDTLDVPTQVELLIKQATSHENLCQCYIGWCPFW
- RUN DESCRIPTION: In Vitro mTOR Kinase Assay (Echo), Test (a)(ii)
- Type: biochemical
- ASSAY CONDITIONS: read-out: mTOR Kinase Assay (Echo)
As shown below, each of these compounds has a reported IC50 value.
Use nM as the unit, but write only the number.

For orientation, consider the following solved cases.
COMPOUND	ASSAY SYSTEM	IC50 (nM)
CC(C)S(=O)(=O)C1(c2cc(N3CCOC[C@@H]3C)nc(-c3ccc(NC(=O)Nc4cnn(C)c4)cc3)n2)CC1 [Example 7m]	mTOR (Homo sapiens)	5.04
CCCNC(=O)Nc1ccc(-c2nc(N3CCOC[C@@H]3C)cc(C3(S(C)(=O)=O)CC3)n2)cc1 [Example 2k]	mTOR (Homo sapiens)	4.06
C[C@H]1COCCN1c1cc(C2(S(=O)(=O)c3ccc(F)cc3)CC2)nc(-c2ccc(NC(=O)NCCCO)cc2)n1 [Example 8j]	mTOR (Homo sapiens)	0.751
CC(C)CNC(=O)Nc1ccc(-c2nc(N3CCOC[C@@H]3C)cc(C3(S(C)(=O)=O)CCC3)n2)cc1 [Example 5i]	mTOR (Homo sapiens)	9.88
CCCNC(=O)Nc1ccc(-c2nc(N3CCOC[C@@H]3C)cc(C3(S(=O)(=O)CC)CC3)n2)cc1 [Example 11h]	mTOR (Homo sapiens)	9.13
CS(=O)(=O)C1(c2cc(N3CCOCC3)nc(-c3ccc(NC(=O)NC4CCC4)cc3)n2)CC1 [Example 12c]	mTOR (Homo sapiens)	1.52

// next item, IC50 requested
Param readout= IC50; system= mTOR (Homo sapiens); entry= CNC(=O)Nc1ccc(-c2nc(N3CCOCC3)cc(C3(S(C)(=O)=O)CCCC3)n2)cc1 [Example 12k] ; returns value. 4.3
